Each item that follows carries a reported GI50.
- System: HOP-62
- test.name: NCI tumour cell line growth inhibition, 48 h
Activity calls are given as the source filed them. Rule as the data show it: active = GI50 up to about 1.1 µM and inactive = higher. Where a SMILES comes first, the peptide text is derived from it. [ ]: non-standard residue; d: D form. The star is where a group is joined. ξ: configuration not given here. ξF = NC(Cc1ccccc1)C(=O)O; Cbz = O=C(OCc1ccccc1)*; Aib = CC(C)(N)C(=O)O; NHNH2 = NN*

[
  {
    "compound": "N#Cc1nc(C2CC2)oc1N",
    "target.system": "HOP-62",
    "GI50": "> 100 µM (inactive)"
  },
  {
    "compound": "C=C(C(=O)O)C1CCC(CC/C=C(\\C)CC/C=C(\\C)CCC=C(C)C)CO1 (stereo unspecified)",
    "target.system": "HOP-62",
    "GI50": "23.1 µM (inactive)"
  },
  {
    "compound": "CC(C)c1cccc(C(=O)NCCN(C)C)c1[N+](=O)[O-]",
    "target.system": "HOP-62",
    "GI50": "> 100 µM (inactive)"
  },
  {
    "compound": "N#Cc1ccccc1Sc1ccccc1N",
    "target.system": "HOP-62",
    "GI50": "> 100 µM (inactive)"
  },
  {
    "compound": "N#Cc1cnsc1",
    "target.system": "HOP-62",
    "GI50": "> 100 µM (inactive)"
  }
]

Next compound, please.
Item CC(C)(NC(=O)OCc1ccccc1)C(=O)NC(Cc1ccccc1)C(=O)NN (stereo unspecified) (Cbz-[Aib]-[ξF]-NHNH2) has what recorded GI50?
> 100 µM (inactive)

====

- Tested on: Hs-578T
- test.name: NCI tumour cell line growth inhibition, 48 h
Activity calls are given as the source filed them. Rule as the data show it: active = GI50 up to about 1.1 µM and inactive = higher.
Each item that follows carries a reported GI50.

Use these answered entries as a reference point.
[
  {
    "compound": "COc1cc(C2c3cc4c(cc3[C@@H](Nc3ccccc3)C3CO[C@@H](OC)[C@H]23)OCO4)cc(OC)c1O (stereo not given in full)",
    "GI50": "3.21 µM (inactive)"
  },
  {
    "compound": "C#C[C@]1(O)CC[C@H]2[C@@H]3CCc4cc(OC(=O)c5cccc6cc7ccccc7nc56)ccc4[C@H]3CC[C@@]21C",
    "GI50": "25.6 µM (inactive)"
  },
  {
    "compound": "CC(=O)Oc1c(OC(C)C)c(C)c(O[Si](C(C)C)(C(C)C)C(C)C)c2[nH]c3ccccc3c12",
    "GI50": "> 100 µM (inactive)"
  },
  {
    "compound": "O=C1CCc2cc([N+](=O)[O-])ccc2O1",
    "GI50": "> 100 µM (inactive)"
  },
  {
    "compound": "O=C1c2ccccc2C(=O)N1C1(C(=O)NC2(C(=O)O)CCCC2)CCCC1",
    "GI50": "> 100 µM (inactive)"
  }
]

Item COC(=O)CCC1(C)C2CCC1(C)/C(=N/O)C2 (stereo not given) has what recorded GI50?
> 100 µM (inactive)

Item `COc1ccc2oc3c(ccc[n+]3C)c(=O)c2c1` has what recorded GI50?
> 100 µM (inactive)

Item `Nc1ccc(/N=N/c2c(S(=O)(=O)O)cc3ccccc3c2S(=O)(=O)O)cc1` has what recorded GI50?
> 100 µM (inactive)

Item COc1ccc(/C(=N/O)c2ccccc2C2=Nc3ccccc3C(NCc3ccccc3)O2)cc1C (stereo not given) has what recorded GI50?
40.8 µM (inactive)

Item `CSc1ccc(/C=C2\CNC/C(=C\c3ccc(SC)cc3)C2=O)cc1` has what recorded GI50?
64.1 µM (inactive)

Item `COc1cc2c(c(OC)c1O)-c1ccc(OC)c(=O)cc1[C@@H](NC(=O)C(F)(F)F)CC2` has what recorded GI50?
0.019 µM (active)

Item `O=c1cnn(C/C=C/CP(=O)(O)O)c(=O)[nH]1` has what recorded GI50?
> 100 µM (inactive)

Item CCCCCCCCCCNC1CC(OC2CC(O)(C(O)CO)Cc3c(O)c4c(c(O)c32)C(=O)c2c(OC)cccc2C4=O)OC(C)C1O (stereo not given) has what recorded GI50?
1.67 µM (inactive)

Item `C/C=N\n1c(C)c(C#N)c(C#N)c1N` has what recorded GI50?
> 100 µM (inactive)

Item `Cc1ccc(/N=N/c2c(O)ccc3cc(S(=O)(=O)O)ccc23)c(C)c1` has what recorded GI50?
> 100 µM (inactive)

Item `COc1cccc2c1-c1nc(N)c3c(OC)cccc3c1C2=O` has what recorded GI50?
22.2 µM (inactive)

Item O=c1c(Br)c(-c2ccccc2)[s+]([O-])c2ccccc12 (stereo not given) has what recorded GI50?
25.1 µM (inactive)

Item `COc1c(-c2ccc(F)cc2)oc2c(CC(=O)O)cccc2c1=O` has what recorded GI50?
> 100 µM (inactive)

Item `Cc1ccc2cc3c(ccc4ccccc43)c3c2c1CC3` has what recorded GI50?
83.9 µM (inactive)

Item `CC[C@@]1(O)C(=O)OCc2c1cc1n(c2=O)Cc2c-1nc1ccc(N)cc1c2CC[Si](C)(C)C` has what recorded GI50?
0.134 µM (active)
